study system: T1, human MSLN-R3-his protein (human, UniProt Q13421 487-598)
T1 construct: it is put last here; also called human MSLN-R3 protein; hMSLN-R3-his; not shown: His tag
T1 sequence (Q13421 495-606): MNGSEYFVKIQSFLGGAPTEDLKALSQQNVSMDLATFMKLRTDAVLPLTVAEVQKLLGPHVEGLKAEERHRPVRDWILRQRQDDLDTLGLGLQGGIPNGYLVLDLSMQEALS
method summary: ELISA on coated antigen, antibody 0.002 nM
Listed here: items and their measured OD450.
A number alone suffices; assume OD.

Sample answers from the record:
S009-F7.66.12 (antibody, human IgG1, kappa, V domains shown, Human-murine chimeric antibody, human IgG1 heavy and kappa light constant regions) VH: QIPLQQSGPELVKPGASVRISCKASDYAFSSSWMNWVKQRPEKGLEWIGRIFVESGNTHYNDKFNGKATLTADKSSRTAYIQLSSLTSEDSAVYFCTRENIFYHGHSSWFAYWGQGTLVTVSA VL: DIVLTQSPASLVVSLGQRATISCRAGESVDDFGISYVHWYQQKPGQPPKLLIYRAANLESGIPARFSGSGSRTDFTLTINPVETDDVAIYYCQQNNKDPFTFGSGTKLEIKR ... 0.23
S009-F7.30.5 (antibody, human IgG1, kappa, V domains shown, Human-murine chimeric antibody, human IgG1 heavy and kappa light constant regions) VH: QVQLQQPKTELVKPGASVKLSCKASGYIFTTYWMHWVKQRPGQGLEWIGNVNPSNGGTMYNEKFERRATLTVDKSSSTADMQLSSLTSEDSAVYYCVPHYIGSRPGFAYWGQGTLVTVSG VL: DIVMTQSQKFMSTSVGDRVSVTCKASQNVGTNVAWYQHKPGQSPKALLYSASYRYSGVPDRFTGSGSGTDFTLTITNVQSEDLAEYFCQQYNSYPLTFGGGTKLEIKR ... 0.74

Please report the recorded OD450 for S009-F7.18.10 (antibody, human IgG1, kappa, V domains shown, Human-murine chimeric antibody, human IgG1 heavy and kappa light constant regions) VH: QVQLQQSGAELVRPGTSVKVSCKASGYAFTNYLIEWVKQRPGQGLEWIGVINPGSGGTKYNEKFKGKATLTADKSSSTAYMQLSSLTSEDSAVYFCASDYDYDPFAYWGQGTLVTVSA VL: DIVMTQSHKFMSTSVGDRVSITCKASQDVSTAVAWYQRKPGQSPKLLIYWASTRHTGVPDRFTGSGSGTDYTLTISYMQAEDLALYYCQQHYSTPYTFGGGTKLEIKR .
0.05
